Where these numbers come from: ChEMBL document CHEMBL5038590

Here's a batch of compounds along with measured pKi for 5-hydroxytryptamine receptor 2B (Homo sapiens, UniProt P41595).
pKi: −log10 of the molar value.

[
  {
    "Mol": "CCCNCCc1ccc(Cl)c(-c2ccccc2OC)c1.Cl",
    "Measured target": "5-hydroxytryptamine receptor 2B (Homo sapiens, UniProt P41595)",
    "pKi": 6.77
  },
  {
    "Mol": "CCCNCc1ccc(Cl)c(-c2ccccc2OC)c1",
    "Measured target": "5-hydroxytryptamine receptor 2B (Homo sapiens, UniProt P41595)",
    "pKi": 7.92
  },
  {
    "Mol": "CCN(CC)CCc1ccc(Cl)c(-c2ccccc2OC)c1",
    "Measured target": "5-hydroxytryptamine receptor 2B (Homo sapiens, UniProt P41595)",
    "pKi": 6.49
  },
  {
    "Mol": "CCN(CC)Cc1ccc(Cl)c(-c2ccccc2OC)c1",
    "Measured target": "5-hydroxytryptamine receptor 2B (Homo sapiens, UniProt P41595)",
    "pKi": 7.17
  },
  {
    "Mol": "CCCN(CCC)CCc1ccc(Cl)c(-c2ccccc2OC)c1",
    "Measured target": "5-hydroxytryptamine receptor 2B (Homo sapiens, UniProt P41595)",
    "pKi": 6.64
  },
  {
    "Mol": "COc1ccccc1-c1cc(CCN(C)C)ccc1Cl",
    "Measured target": "5-hydroxytryptamine receptor 2B (Homo sapiens, UniProt P41595)",
    "pKi": 6.55
  },
  {
    "Mol": "CNCCc1ccc(Cl)c(-c2ccccc2OC)c1",
    "Measured target": "5-hydroxytryptamine receptor 2B (Homo sapiens, UniProt P41595)",
    "pKi": 7.16
  },
  {
    "Mol": "CCCCNCCc1ccc(Cl)c(-c2ccccc2OC)c1.Cl",
    "Measured target": "5-hydroxytryptamine receptor 2B (Homo sapiens, UniProt P41595)",
    "pKi": 6.89
  },
  {
    "Mol": "CNCc1ccc(Cl)c(-c2ccccc2OC)c1",
    "Measured target": "5-hydroxytryptamine receptor 2B (Homo sapiens, UniProt P41595)",
    "pKi": 7.89
  },
  {
    "Mol": "CCNCCc1ccc(Cl)c(-c2ccccc2OC)c1.Cl",
    "Measured target": "5-hydroxytryptamine receptor 2B (Homo sapiens, UniProt P41595)",
    "pKi": 6.89
  },
  {
    "Mol": "COc1ccccc1-c1cc(CN(C)C)ccc1Cl",
    "Measured target": "5-hydroxytryptamine receptor 2B (Homo sapiens, UniProt P41595)",
    "pKi": 7.96
  }
]
